Below is a list of entries, each paired with its recorded Percent Effect value.
- ASSAYED SYSTEM: Histidine--tRNA ligase (Leishmania infantum) (UniProt A4I591)
- Sequence (A4I591 as listed by the source): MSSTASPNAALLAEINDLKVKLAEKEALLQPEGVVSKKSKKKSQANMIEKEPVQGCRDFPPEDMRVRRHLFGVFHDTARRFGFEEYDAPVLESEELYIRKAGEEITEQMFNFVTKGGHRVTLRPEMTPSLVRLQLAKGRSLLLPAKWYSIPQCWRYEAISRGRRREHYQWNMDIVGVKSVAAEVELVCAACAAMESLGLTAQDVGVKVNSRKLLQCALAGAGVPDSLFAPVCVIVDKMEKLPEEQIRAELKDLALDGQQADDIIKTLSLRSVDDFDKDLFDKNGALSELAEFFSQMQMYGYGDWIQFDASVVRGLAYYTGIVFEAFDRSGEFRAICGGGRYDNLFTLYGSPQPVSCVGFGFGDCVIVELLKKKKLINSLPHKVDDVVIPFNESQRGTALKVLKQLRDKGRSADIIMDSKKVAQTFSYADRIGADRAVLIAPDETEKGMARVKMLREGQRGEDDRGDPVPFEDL
- METHOD DESCRIPTION: Leishmania infantum Histidine tRNA synthetase (LdHisRS)
- Type: functional
- Parameters: scale not given: in the data most compounds retested in dose-response had high values
- CONDITION LABEL: 30 µM
Screen size: about 69,000 compounds; about 420 (0.61%) showed an effect of 50% or more. Only a selection was taken, and strong results are over-represented in it overall.
The reply should contain only the number, in %.

Field: example entries. Status: answers known.
| COMPOUND | U | Percent Effect |
| --- | --- | --- |
| CCN1CCN(Cc2coc(-c3cccc(F)c3)n2)CC1 | % | 21.9 |
| Cn1nc2c(cc1=O)CN(CC(=O)Nc1nncs1)CC2 | % | 6.06 |
| CC(C(=O)Nc1ccc(Cl)cn1)N1CCc2nn(C)c(=O)cc2C1 (stereo not drawn) | % | 102 |
| CN(CCCc1ccccc1)C(=O)c1ccccc1NCC(=O)O | % | 16.9 |
| CCN(CC)[C@H]1COC[C@@H]2CN(Cc3cnn(C)c3)C[C@@H]21 | % | 15.8 |

Query: # return recorded Percent Effect for entry O=C(N1CCOCC1)[C@@]12CCO[C@@H]1CCN(CC1CCCCC1)C2
Result: -3.88

Query: # return recorded Percent Effect for entry O=C1NCCN1C1CCCN(Cc2coc(-c3cccs3)n2)C1 (stereo not drawn)
Result: 13.4

Query: # return recorded Percent Effect for entry COCCNc1cc(-c2ccccc2CCN)c2cc[nH]c2n1
Result: 4.84
